// data source = patent US20260028354A1

Measured pIC50 of individual entries
- Test System: CRBN/DDB1 (Homo sapiens (Human))
- Sequence (Q96SW2 whole entry, species assumed): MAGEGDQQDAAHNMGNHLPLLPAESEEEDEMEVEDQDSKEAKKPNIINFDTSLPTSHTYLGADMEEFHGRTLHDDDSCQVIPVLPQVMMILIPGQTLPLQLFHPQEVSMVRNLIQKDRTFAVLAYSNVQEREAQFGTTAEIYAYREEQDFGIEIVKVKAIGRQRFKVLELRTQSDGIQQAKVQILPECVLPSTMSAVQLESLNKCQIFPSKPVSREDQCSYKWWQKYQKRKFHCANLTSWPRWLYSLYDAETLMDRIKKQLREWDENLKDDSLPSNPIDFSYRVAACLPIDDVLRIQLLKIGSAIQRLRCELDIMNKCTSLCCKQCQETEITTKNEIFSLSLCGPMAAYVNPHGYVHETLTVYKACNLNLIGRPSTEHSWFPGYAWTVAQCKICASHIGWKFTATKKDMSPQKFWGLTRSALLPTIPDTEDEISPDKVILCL
- Sequence (Q16531 whole entry partner, species assumed): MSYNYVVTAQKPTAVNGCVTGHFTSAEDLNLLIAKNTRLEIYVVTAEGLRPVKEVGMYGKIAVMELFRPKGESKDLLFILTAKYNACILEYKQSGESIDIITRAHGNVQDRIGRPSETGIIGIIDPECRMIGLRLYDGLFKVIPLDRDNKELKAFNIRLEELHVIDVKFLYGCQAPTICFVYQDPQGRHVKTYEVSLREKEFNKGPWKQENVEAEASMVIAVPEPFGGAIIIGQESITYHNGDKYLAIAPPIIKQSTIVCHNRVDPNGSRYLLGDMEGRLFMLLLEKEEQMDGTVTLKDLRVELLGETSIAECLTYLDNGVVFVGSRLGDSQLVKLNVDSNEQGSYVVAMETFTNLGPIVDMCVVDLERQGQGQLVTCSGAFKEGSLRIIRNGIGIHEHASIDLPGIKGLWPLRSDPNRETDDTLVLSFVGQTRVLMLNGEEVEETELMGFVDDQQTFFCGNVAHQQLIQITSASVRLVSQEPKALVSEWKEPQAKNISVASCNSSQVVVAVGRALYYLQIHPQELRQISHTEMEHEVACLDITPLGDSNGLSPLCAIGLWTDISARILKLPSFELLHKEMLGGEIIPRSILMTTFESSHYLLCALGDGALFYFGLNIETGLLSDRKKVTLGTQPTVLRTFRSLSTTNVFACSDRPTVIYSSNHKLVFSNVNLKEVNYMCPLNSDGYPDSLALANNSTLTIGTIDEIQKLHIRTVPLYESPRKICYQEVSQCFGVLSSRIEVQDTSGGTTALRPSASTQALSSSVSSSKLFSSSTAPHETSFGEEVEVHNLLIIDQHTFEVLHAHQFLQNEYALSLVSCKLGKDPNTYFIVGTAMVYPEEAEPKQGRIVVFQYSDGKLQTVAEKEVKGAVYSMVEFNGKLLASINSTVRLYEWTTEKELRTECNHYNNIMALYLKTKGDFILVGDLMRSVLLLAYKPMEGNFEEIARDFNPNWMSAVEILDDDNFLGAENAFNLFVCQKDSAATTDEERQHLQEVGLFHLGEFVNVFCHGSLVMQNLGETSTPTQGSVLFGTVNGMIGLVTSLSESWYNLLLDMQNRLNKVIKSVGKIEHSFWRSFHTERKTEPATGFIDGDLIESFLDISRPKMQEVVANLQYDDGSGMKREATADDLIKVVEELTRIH
- Settings: His tagged CRBN+DDB1, Cy5-labeled Thalidomide probe, one hour; read-out: CRBN HTRF IC50
pIC50: −log10 of the molar value.
Measured Metric: pIC50

INSERT INTO results (molecule, endpoint_value) VALUES
  ('O=C1CC[C@H](Nc2ccc(C3CCN(C[C@H]4COC5(CCN(c6ccc([C@@H]7c8ccc(O)cc8CC[C@@H]7c7ccccc7)cc6)CC5)C4)CC3)cc2)C(=O)N1 (single isomer, unassigned)', '6.30 to 7.30'),
  ('O=C1CC[C@H](N2Cc3c(ccc4c3OCC43CCN(C[C@H]4COC5(C4)CN(c4ccc([C@@H]6c7ccc(O)cc7CC[C@@H]6c6ccccc6)cc4)C5)CC3)C2=O)C(=O)N1', '> 7.30'),
  ('O=C1CC[C@H](N2Cc3c(ccc4c3OC[C@H]3CN(CC5CCC6(CC5)CN(c5ccc([C@H]7c8ccc(O)cc8CC[C@H]7c7ccccc7)cc5F)C6)CCN43)C2=O)C(=O)N1 (single isomer, unassigned)', '6.30 to 7.30'),
  ('O=C1CC[C@H](N2Cc3c(ccc4c3OCC43CCN(C[C@@H]4COC5(C4)CN(c4ccc([C@@H]6c7ccc(O)cc7CC[C@@H]6c6ccccc6)cc4)C5)CC3)C2=O)C(=O)N1', '> 7.30'),
  ('O=C1CC[C@@H](Nc2ccc(C3CCN(CC4CC5(CCN(c6ccc([C@@H]7c8ccc(O)cc8CC[C@@H]7c7ccccc7)cc6)CC5)C4)CC3)cc2)C(=O)N1 (single isomer, unassigned)', '6.30 to 7.30');
